All values here come from patent US20240123070A1.

- experimentalSystem: KRAS G13D antigen (G13D-RT6, SEQ ID NO: 20) loaded on Lovo-DPA0301:DPB0501 cells (human)
- assayText: cell-based or functional assay
propertyName: TCR Mut RLU/WT RLU (ratio)
Unit ratio implied. Number only.

Some solved entries appear below for comparison.
B8.2.4 TCR mutant β95Q-F (TCR, V domains shown) V domain 1: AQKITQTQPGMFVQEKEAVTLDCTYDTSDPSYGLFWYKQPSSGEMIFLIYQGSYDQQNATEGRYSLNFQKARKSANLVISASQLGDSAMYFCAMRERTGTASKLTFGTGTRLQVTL V domain 2: DVKVTQSSRYLVKRTGEKVFLECVQDMDHENMFWYRQDPGLGLRLIYFSYDVKMKEKGDIPEGYSVSREKKERFSLILESASTNQTSMYLCASSFTVPPQHFGDGTRLSILE
0.34
B8.2.4 TCR mutant β98P-A (TCR, V domains shown) V domain 1: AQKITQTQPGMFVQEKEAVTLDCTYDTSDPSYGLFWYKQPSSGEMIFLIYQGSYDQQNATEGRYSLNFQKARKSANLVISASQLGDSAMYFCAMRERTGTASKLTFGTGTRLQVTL V domain 2: DVKVTQSSRYLVKRTGEKVFLECVQDMDHENMFWYRQDPGLGLRLIYFSYDVKMKEKGDIPEGYSVSREKKERFSLILESASTNQTSMYLCASSQTVAPQHFGDGTRLSILE
0.5
B8.2.4 TCR mutant β96T-A (TCR, V domains shown) V domain 1: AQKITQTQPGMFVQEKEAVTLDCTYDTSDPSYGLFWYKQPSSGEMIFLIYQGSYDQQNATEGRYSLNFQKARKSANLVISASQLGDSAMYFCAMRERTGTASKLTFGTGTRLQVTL V domain 2: DVKVTQSSRYLVKRTGEKVFLECVQDMDHENMFWYRQDPGLGLRLIYFSYDVKMKEKGDIPEGYSVSREKKERFSLILESASTNQTSMYLCASSQAVPPQHFGDGTRLSILE
0.77

Entry B8.2.4 TCR mutant β97V-G (TCR, V domains shown) V domain 1: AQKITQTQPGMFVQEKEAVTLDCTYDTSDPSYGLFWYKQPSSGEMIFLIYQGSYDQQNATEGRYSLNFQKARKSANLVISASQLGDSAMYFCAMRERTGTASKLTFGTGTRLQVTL V domain 2: DVKVTQSSRYLVKRTGEKVFLECVQDMDHENMFWYRQDPGLGLRLIYFSYDVKMKEKGDIPEGYSVSREKKERFSLILESASTNQTSMYLCASSQTGPPQHFGDGTRLSILE needs its TCR Mut RLU/WT RLU filled in; supply it. 0.26

Entry B8.2.4 TCR mutant β98P-R (TCR, V domains shown) V domain 1: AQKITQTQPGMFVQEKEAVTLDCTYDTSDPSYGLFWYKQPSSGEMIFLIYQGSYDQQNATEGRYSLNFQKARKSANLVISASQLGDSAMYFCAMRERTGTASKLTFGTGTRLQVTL V domain 2: DVKVTQSSRYLVKRTGEKVFLECVQDMDHENMFWYRQDPGLGLRLIYFSYDVKMKEKGDIPEGYSVSREKKERFSLILESASTNQTSMYLCASSQTVRPQHFGDGTRLSILE needs its TCR Mut RLU/WT RLU filled in; supply it. 0.73
